- Test system: OVCAR-5 ovarian
- ASSAY NAME: NCI tumour cell line growth inhibition, 48 h

>  <COMPOUND>
Oc1ccc(-c2nnc3sc(-c4ccc(F)cc4)nn23)cc1

>  <TESTED SYSTEM>
OVCAR-5 ovarian

>  <TGI>
> 100 µM

$$$$
>  <COMPOUND>
C/C(=C\c1ccccc1)C(=O)CCN1CCOCC1

>  <TESTED SYSTEM>
OVCAR-5 ovarian

>  <TGI>
33.4 µM

$$$$
>  <COMPOUND>
Cc1cc(N(CCC#N)S(=O)(=O)c2ccccc2)ccc1/C=C1N=C(/C=C/c2ccccc2)OC\1=O

>  <TESTED SYSTEM>
OVCAR-5 ovarian

>  <TGI>
> 100 µM

$$$$
>  <COMPOUND>
CC1(C)SC2C(NC(=O)C(N)c3ccccc3)C(=O)N2C1C(=O)O (stereo not given)

>  <TESTED SYSTEM>
OVCAR-5 ovarian

>  <TGI>
> 100 µM

$$$$
>  <COMPOUND>
COC1(C(=O)N[C@@H](C)c2ccc(-n3cc(F)cn3)nc2)CCC(c2nc(C)cc(Nc3cc(C)[nH]n3)n2)CC1 (stereo not given in full)

>  <TESTED SYSTEM>
OVCAR-5 ovarian

>  <TGI>
12.5 µM

$$$$
>  <COMPOUND>
COC(=O)c1c(C)cccc1/C=C1/Cc2c(C)cccc2C1=O

>  <TESTED SYSTEM>
OVCAR-5 ovarian

>  <TGI>
> 100 µM

$$$$
>  <COMPOUND>
COc1ccc(-c2ccc(/C=N/n3c(COc4ccc(Cl)cc4Cl)n[nH]c3=S)o2)c([N+](=O)[O-])c1

>  <TESTED SYSTEM>
OVCAR-5 ovarian

>  <TGI>
47.6 µM

$$$$
>  <COMPOUND>
CNC(=O)OCc1nc(SC2CCCCO2)n(C)c1COC(=O)NC (stereo not given)

>  <TESTED SYSTEM>
OVCAR-5 ovarian

>  <TGI>
> 100 µM

$$$$
>  <COMPOUND>
O=C(CC(=O)CC(O)(C(F)(F)F)C(F)(F)F)CC(O)(C(F)(F)F)C(F)(F)F

>  <TESTED SYSTEM>
OVCAR-5 ovarian

>  <TGI>
> 10 µM

$$$$
>  <COMPOUND>
Cc1cccc(NC(=O)CC(=O)N2N=C(N(CCC#N)c3ccc(Cl)cc3)CC2c2ccccc2)c1 (stereo not given)

>  <TESTED SYSTEM>
OVCAR-5 ovarian

>  <TGI>
> 100 µM

$$$$

###

- Test system: SW-620 colon
- ASSAY NAME: NCI tumour cell line growth inhibition, 48 h
Quick list: TGI per entry.

>  <MOLECULE>
CCN(Cc1ccc(F)c(F)c1)c1ccc(CO)c(Cl)c1

>  <TESTED SYSTEM>
SW-620 colon

>  <BOUND TYPE>
=

>  <TGI, µM>
21

$$$$
>  <MOLECULE>
CCC1=CCC23C(=O)C=CC(=O)C2(C1)C(=O)c1cccc(OC)c1C3=O (configuration not stated)

>  <TESTED SYSTEM>
SW-620 colon

>  <BOUND TYPE>
=

>  <TGI, µM>
34

$$$$
>  <MOLECULE>
Cc1cc(-c2nc3c(O)cccc3s2)ccc1N

>  <TESTED SYSTEM>
SW-620 colon

>  <BOUND TYPE>
>

>  <TGI, µM>
100

$$$$
>  <MOLECULE>
C=C(Cl)/C(=C\Cl)CCC(Br)C(C)C (configuration not stated)

>  <TESTED SYSTEM>
SW-620 colon

>  <BOUND TYPE>
=

>  <TGI, µM>
37.9

$$$$
>  <MOLECULE>
CCCN=Cc1cc(Cc2ccc(O)c(C=NCCC)c2)ccc1O

>  <TESTED SYSTEM>
SW-620 colon

>  <BOUND TYPE>
=

>  <TGI, µM>
15.9

$$$$
>  <MOLECULE>
CC1CCCCc2nc3c(c(=O)n21)CCCC3 (configuration not stated)

>  <TESTED SYSTEM>
SW-620 colon

>  <BOUND TYPE>
>

>  <TGI, µM>
100

$$$$
>  <MOLECULE>
C1CCSCCCCSCCCCSCCCCSC1

>  <TESTED SYSTEM>
SW-620 colon

>  <BOUND TYPE>
>

>  <TGI, µM>
100

$$$$
>  <MOLECULE>
COc1ccc2c(CCCC(c3ccccc3)c3ccccc3)c3[n+](cc2c1OC)CCc1cc2c(cc1-3)OCO2

>  <TESTED SYSTEM>
SW-620 colon

>  <BOUND TYPE>
=

>  <TGI, µM>
1.39

$$$$
>  <MOLECULE>
NC(=S)N/N=C(/CC(=O)c1ccccc1)C(=O)Nc1ccc(Cl)c(Cl)c1

>  <TESTED SYSTEM>
SW-620 colon

>  <BOUND TYPE>
>

>  <TGI, µM>
100

$$$$
>  <MOLECULE>
C/C(=N/NC(N)=S)c1ccc2ccccc2c1

>  <TESTED SYSTEM>
SW-620 colon

>  <BOUND TYPE>
>

>  <TGI, µM>
100

$$$$
>  <MOLECULE>
COC(=O)c1csnn1

>  <TESTED SYSTEM>
SW-620 colon

>  <BOUND TYPE>
>

>  <TGI, µM>
100

$$$$
>  <MOLECULE>
CCOC(=O)C1=C(C(C)=O)CSC(c2ccccc2)=N1

>  <TESTED SYSTEM>
SW-620 colon

>  <BOUND TYPE>
>

>  <TGI, µM>
100

$$$$

###

Entries and their measured TGI follow.
- System: DMS 114 small cell lung
- ASSAY NAME: NCI tumour cell line growth inhibition, 48 h
READOUT KIND: TGI

>  <COMPOUND>
CC(=O)NNc1nc(C)c(C(=O)NNC(=O)C(=O)Nc2ccccc2C#N)s1

>  <READOUT KIND>
TGI

>  <TEST RESULT>
> 100 µM

$$$$
>  <COMPOUND>
COc1cc(/C=C2\C(=O)N(C(=O)Cc3ccccc3)N=C2C)ccc1O

>  <READOUT KIND>
TGI

>  <TEST RESULT>
> 100 µM

$$$$
>  <COMPOUND>
COc1ccc2c(c1)C(O)(C(F)(F)F)c1cc(C(=O)C(F)(F)F)c3ccccc3c1N2 (centres undefined)

>  <READOUT KIND>
TGI

>  <TEST RESULT>
22.1 µM

$$$$
>  <COMPOUND>
CC(C)(C)C1=Cc2cc3cc(C(C)(C)C)[nH]c(=O)c3cc2S(=O)(=O)N1

>  <READOUT KIND>
TGI

>  <TEST RESULT>
44.4 µM

$$$$
>  <COMPOUND>
C=C1C(=O)O[C@H]2[C@H]1[C@H](OC(=O)/C(C)=C\C)CC(=C)[C@@H]1[C@H](O)[C@H]3O[C@@]3(C)[C@@]12O

>  <READOUT KIND>
TGI

>  <TEST RESULT>
> 100 µM

$$$$
>  <COMPOUND>
CC(=O)NC(CCCNCc1ccccc1)C(=O)NCc1ccccc1 (centres undefined)

>  <READOUT KIND>
TGI

>  <TEST RESULT>
> 100 µM

$$$$
>  <COMPOUND>
CN(C(=O)C12C3C4C5C3C1(C(=O)O)C5C42)C(C)(C)C (centres undefined)

>  <READOUT KIND>
TGI

>  <TEST RESULT>
72.6 µM

$$$$
>  <COMPOUND>
C=C1C(O)C2(O)OCC34C(CC5C(C)=CC(=O)C(O)C5(C)C23)OC(=O)C(OC(=O)C/C=C(\C)CCCCC)C14 (centres undefined)

>  <READOUT KIND>
TGI

>  <TEST RESULT>
0.0161 µM

$$$$
>  <COMPOUND>
Cc1cccc(NC(=O)CC(=O)N2N=C(N(CCC#N)c3ccc(Cl)cc3)CC2c2ccccc2)c1 (centres undefined)

>  <READOUT KIND>
TGI

>  <TEST RESULT>
> 100 µM

$$$$
>  <COMPOUND>
CNC(=O)OCc1nc(SC2CCCCO2)n(C)c1COC(=O)NC (centres undefined)

>  <READOUT KIND>
TGI

>  <TEST RESULT>
> 100 µM

$$$$
>  <COMPOUND>
O=C(O)c1ccc([Se][Se]c2ccc(C(=O)O)cc2)cc1

>  <READOUT KIND>
TGI

>  <TEST RESULT>
54 µM

$$$$
>  <COMPOUND>
Cc1ccncc1.[O]=[Ge].[O]=[Ge].[O]=[Ge].[O]=[Ge].[O]=[Ge].[O]=[Ge][OH].[O]=[Ge][OH]

>  <READOUT KIND>
TGI

>  <TEST RESULT>
> 100 µM

$$$$
>  <COMPOUND>
Cc1cc(N(CCC#N)S(=O)(=O)c2ccccc2)ccc1/C=C1N=C(/C=C/c2ccccc2)OC\1=O

>  <READOUT KIND>
TGI

>  <TEST RESULT>
> 100 µM

$$$$
>  <COMPOUND>
COc1cccc(NC(=O)CC(=O)N2N=C(N(CCC#N)c3ccc(Cl)cc3)CC2c2ccccc2)c1 (centres undefined)

>  <READOUT KIND>
TGI

>  <TEST RESULT>
> 100 µM

$$$$
